target: T1, tau monomers (Stressmarq) (UniProt P10636-8 1-441, limits assumed); experiment: SPR, hybridoma supernatant over immobilized tau monomers
T1 construct: also called monomeric tau polypeptide
T1 sequence (P10636 other isoform, or with tags, fused parts or gaps limits assumed): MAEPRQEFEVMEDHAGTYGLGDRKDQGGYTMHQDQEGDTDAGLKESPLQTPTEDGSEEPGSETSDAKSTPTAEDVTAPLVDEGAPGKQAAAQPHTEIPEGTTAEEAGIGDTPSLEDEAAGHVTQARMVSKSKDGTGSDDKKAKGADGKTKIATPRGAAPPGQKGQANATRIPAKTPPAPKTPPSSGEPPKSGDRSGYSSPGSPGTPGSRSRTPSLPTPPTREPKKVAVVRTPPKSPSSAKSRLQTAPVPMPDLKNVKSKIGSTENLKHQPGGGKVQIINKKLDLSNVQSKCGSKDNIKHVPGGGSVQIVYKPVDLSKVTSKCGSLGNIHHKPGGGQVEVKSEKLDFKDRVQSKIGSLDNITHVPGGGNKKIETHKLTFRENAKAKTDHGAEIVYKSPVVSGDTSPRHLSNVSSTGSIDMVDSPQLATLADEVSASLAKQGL
OBSERVATION TYPE: binding response (RU)
Expressed in RU, but write only the number.

Worked cases, answers included:
Ab10 (clone 9D12) (antibody, V domains shown, kappa light chain) VH: QIQLVQSGPELKKPGETVKISCKASGYTFTNYGMNWVKQAPGKGLKWMGWINTYTGEPTYTDDFKGRFAFSLETSASTAYLQINNLKNEDTATYFCGRGIRDYYTMDYWGQGTSVTVSS VL: DIVMSQSPSSLAVSAGEKVTMSCKSSQSLLNNRTRKNYLAWYQQKPGQSPKLLIYWASTRESGVPDRFTGSGSGTDFTLTISSVQAEDLAVYYCKQSYNLYTFGGGTKLEIK
5.2
Ab3 (clone 2C7) (antibody, V domains shown, tested as hybridoma supernatant; kappa light chain) VH: QVTLKESGPGILKPSQTLSLTCSFSGFSLSTSGMGVGWIRQPSGKGLEWLAHIWWDDDKYYNPSLKNRLTISKDTSRNQVFLKITSVDTADTATYYCVRSIYYYDSSPYYYVMDYWGQGTSVTVSS VL: DIVMTQSHKFMSTSVGDRVSITCKASQDVSIAVAWYQQKPGQSPKLLIYSASYRNTGVPDRFTGSGSGTDFTFTISSVQAEDLAVYYCQQHYSSPLTFGAGTKLELK
201
Ab21 (clone 2C6) (antibody, V domains shown, tested as hybridoma supernatant; kappa light chain; also called 2C6.1) VH: EVQLQQSGAELVKPGASVKLSCTASGFNIKDTHMHWVKQRPEQGLEWIGKIDPSNGNTQYDPKFQGKATITADTSSNTAYLQLSSLTSEDTAVYYCATGFAYWGQGTLVTVSA VL: DIQMTQSPASLSASVGETVTITCRASGNIHNYLAWYQQKQGKSPQLLVYNAKTLADGVPSRFSGSGSGTQYSLKINSLQPEDFGSYYCQHFWYTPWTFGGGTKLEIK
3.5
Ab29 (clone 12D11) (antibody, V domains shown, tested as hybridoma supernatant; kappa light chain) VH: QIQLVQSGPELKKPGETVKISCKASGYTFTNYGMNWVKQAPGKGLKWMGWINTYSGEPTYVDDFKGRFAFSLETSASTAYLQINNLKNEDMATYFCARSPGAYYTLDYWGQGTSVTVSS VL: DIVMSQSPSSLAVSAGEKVTMSCKSSQSLLNSRTRKNYLAWYQQKPGQSPKLLIYWASTRESGVPDRFTGSGSGTDFTLTISSVQAEDLAVYYCKQSYNLYTFGGGTKLEIK
3
Ab23 (clone 8E11) (antibody, V domains shown, kappa light chain; also called 8E11.1) VH: QVQLQQSGAELVRPGSSVKISCKASGYAFSSYWMNWVKQRPGQGLEWIGQIYPGDGDTNYNGKFKGKATLTADKSSSTAYMQLSSLTSEDSAVYLCASQIYDGYYTFTYWGQGTLVTVSA VL: DIVMSQSPSSLAVSAGEKVTMSCKSSQSLLNSRTRKNYLAWYQQKPGQSPKLLIYWASTRVSGVPDRFTGSGSGTDFTLTISSVQAEDLAVYYCKQSYNLWTFGGGTKLEIK
4.6

The measured binding response (RU) associated with Ab14 (clone 10D4) (antibody, V domains shown, tested as hybridoma supernatant; kappa light chain) VH: DVQLQESGPGLVKPSQSLSLTCTVTGFSITSDYAWNWIRQFPGNKLEWMGFIRYSGNTRFNPSLKGRGSITRDTSKNQFFLQLNSVTTEDTATYYCASTLEDSYWYFDVWGAGTTVTVSS VL: DVLMTQTPLSLPVSLGDQASISCRSSQSIVHTNGNTYLEWYLQKPGQSPKLLIYKVSNRFSGVPDRFSGSGSGTDFTLKISRVEAEDLGVYYCFQGSHVPLTFGAGTKLELK reads 6.9

Entry Ab12 (clone 10B10) (antibody, V domains shown, tested as hybridoma supernatant; kappa light chain; also called 10B10.1) VH: QIQLVQSGPELKKPGETVKISCKASGYTFTNFGMNWVKQAPGKGLKWMGWINTFTGEPTYVDDFKGRFAFSLETSATTAYLQINNLKNEDTATYFCARSPGRVYTLDYWGQGTSVTVSS VL: DIVMSQSPSSLAVSAGEKVTMSCKSSQSLLNSRTRKNYLAWYQQKPGQSPKLLIYWASTRESGVPDRFTGSGSGTDFTLTISSVQAEDLAVYYCKQSYNLYTFGGGTKLEIK — recorded binding response (RU) = 5
